Values were extracted from patent US10160755B2.

# target.of.assay: c-Kit (Homo sapiens, UniProt P10721)
# Sequence (P10721 26-976): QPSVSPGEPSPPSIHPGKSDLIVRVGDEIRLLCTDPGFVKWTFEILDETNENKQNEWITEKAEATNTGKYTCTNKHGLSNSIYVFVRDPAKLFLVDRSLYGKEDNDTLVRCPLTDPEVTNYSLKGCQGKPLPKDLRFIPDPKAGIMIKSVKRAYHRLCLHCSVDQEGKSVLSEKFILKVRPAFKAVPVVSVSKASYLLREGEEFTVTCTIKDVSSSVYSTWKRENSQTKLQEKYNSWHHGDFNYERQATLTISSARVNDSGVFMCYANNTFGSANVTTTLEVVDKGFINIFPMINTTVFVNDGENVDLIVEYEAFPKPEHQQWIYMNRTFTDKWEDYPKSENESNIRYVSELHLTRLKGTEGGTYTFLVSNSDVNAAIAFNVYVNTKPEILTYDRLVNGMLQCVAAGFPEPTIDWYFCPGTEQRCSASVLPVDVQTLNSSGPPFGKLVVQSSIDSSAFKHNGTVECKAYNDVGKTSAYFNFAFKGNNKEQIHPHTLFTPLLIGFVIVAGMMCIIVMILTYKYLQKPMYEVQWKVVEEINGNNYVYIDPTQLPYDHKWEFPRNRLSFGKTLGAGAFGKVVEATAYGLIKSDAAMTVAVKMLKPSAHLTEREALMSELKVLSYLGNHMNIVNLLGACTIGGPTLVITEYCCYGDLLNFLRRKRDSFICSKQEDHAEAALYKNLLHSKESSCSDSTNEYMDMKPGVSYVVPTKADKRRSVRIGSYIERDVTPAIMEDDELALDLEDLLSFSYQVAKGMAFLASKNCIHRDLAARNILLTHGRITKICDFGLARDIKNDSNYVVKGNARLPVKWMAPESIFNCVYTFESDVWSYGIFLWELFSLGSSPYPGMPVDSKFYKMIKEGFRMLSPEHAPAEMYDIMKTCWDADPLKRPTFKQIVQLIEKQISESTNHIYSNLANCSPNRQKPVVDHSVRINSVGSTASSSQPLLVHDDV
# protocol.text: c-Kit biochemical assay (per US 2007/0032519)
Recorded IC50 by entry

Observe how each entry below is paired with its result.
| smiles | readout.value |
| --- | --- |
| Cn1cnc2ccc(-c3c[nH]c4ncc(-c5cccc(C#N)c5)cc34)cc21 | 10 to 200 µM |
| COc1cnc2[nH]cc(-c3ccc4ncn(C5CCCC5)c4c3)c2c1 | 1 to 10 µM |
| COc1ccc(-c2cnc3[nH]cc(-c4ccc5ncsc5c4)c3n2)cn1 | 1 to 10 µM |

Provide measured IC50 value, entry: CNS(=O)(=O)c1ccc(-c2cnc3[nH]cc(-c4ccc5ncsc5c4)c3n2)cc1 10 to 200 µM

Given Cn1cnc2ccc(-c3c[nH]c4ncc(C5=CCN(C(=O)C6CC6)C5)nc34)cc21 , respond with its IC50. 1 to 10 µM

Give the measured IC50 for COc1cnc2[nH]cc(-c3ccc4ncn(C5CCNCC5)c4c3)c2c1 10 to 200 µM

Identify IC50 associated with the molecule Cn1cnc2ccc(-c3c[nH]c4ncc(-c5cccc(C(=O)NC6CC6)c5)cc34)cc21 10 to 200 µM

Given the molecule Cn1cnc2ccc(-c3c[nH]c4ncc(OCC#N)cc34)cc21 , write its reported IC50. 1 to 10 µM

Give the reported value of IC50 for this record: COc1cnc2[nH]cc(-c3ccc4ncsc4c3)c2c1 1 to 10 µM

Quickly give me recorded IC50 for COc1ccc2c(-c3ccc4ncn(C)c4c3)c[nH]c2n1 10 to 200 µM

Output IC50 of Cn1cnc2ccc(-c3c[nH]c4ncc(-c5cccc(C(F)(F)F)c5)cc34)cc21 10 to 200 µM

Identify measured IC50 corresponding to CS(=O)(=O)Nc1cccc(-c2cnc3[nH]cc(-c4ccc5[nH]cnc5c4)c3n2)c1 1 to 10 µM

Identify measured IC50 corresponding to CCCn1cnc2cc(-c3c[nH]c4ncc(OC)cc34)ccc21 10 to 200 µM

Quickly give me recorded IC50 for COc1cccc(-c2cnc3[nH]cc(-c4ccc5ncn(C)c5c4)c3c2)c1 1 to 10 µM

Return IC50 for the following molecule: COc1cc(-c2cnc3[nH]cc(-c4ccc5ncn(C)c5c4)c3c2)ccn1 1 to 10 µM
